Could you please report measured loss of binding vs wild type for the items listed next?
Molecular target: T1, hiR2-FL-S561A-T7 (human, UniProt Q6PJF5 1-856)
T1 sequence: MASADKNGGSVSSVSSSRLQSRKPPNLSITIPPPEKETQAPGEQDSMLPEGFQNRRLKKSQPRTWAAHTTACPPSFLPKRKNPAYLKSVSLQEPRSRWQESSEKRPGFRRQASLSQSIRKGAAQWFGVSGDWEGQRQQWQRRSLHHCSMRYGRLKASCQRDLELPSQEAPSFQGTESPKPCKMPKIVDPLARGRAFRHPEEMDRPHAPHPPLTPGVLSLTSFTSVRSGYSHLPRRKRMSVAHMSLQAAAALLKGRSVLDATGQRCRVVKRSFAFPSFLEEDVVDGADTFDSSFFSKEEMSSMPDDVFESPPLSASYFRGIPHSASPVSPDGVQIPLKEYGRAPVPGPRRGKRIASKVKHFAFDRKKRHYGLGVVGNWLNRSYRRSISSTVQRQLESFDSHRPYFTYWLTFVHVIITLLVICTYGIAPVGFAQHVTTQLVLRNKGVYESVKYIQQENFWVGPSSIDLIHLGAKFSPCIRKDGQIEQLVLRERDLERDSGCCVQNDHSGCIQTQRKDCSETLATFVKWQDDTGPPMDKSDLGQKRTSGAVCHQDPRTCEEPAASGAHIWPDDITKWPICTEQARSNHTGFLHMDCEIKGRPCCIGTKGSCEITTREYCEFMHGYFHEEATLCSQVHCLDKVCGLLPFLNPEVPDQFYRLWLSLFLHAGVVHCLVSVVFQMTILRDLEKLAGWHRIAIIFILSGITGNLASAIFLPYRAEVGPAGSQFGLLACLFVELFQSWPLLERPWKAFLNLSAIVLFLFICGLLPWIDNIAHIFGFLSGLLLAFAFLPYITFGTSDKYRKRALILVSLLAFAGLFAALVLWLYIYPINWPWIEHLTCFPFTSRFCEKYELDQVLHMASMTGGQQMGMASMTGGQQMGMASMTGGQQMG
Assay: FACS on MEF-DKO cells expressing the variant, 3 µg/ml antibody

In the examples that follow, each entry is paired with its recorded loss of binding vs wild type.
Binder	Result
antibody 5 (antibody, V domains shown, mouse IgG, kappa light chain; also called clone #5; purified antibody 5) VH: QVTLKESGPGILQPSQTLSLTCSFSGFSLSTFGMGVGWIRQPSGKGLEWLAHIWWDDEKYYNSALKSRLTISKATSKNQAFLKIANVDTADTATYYCARISNYGSNYWYFNVWGTGTTVTVSS VL: QVVLTQSPALMSASPGEKVTMTCSAGSSVSCMYWYQQKPGSSPRVLIYDTSNLASGVPARFTGSGSGTSYSLTISRMEAEDAASYYCQQWNSYPLTFGAGTKLELK	≥ 30%
antibody 3 (antibody, V domains shown, mouse IgG, kappa light chain; also called clone #3; purified antibody 3) VH: QVTLKESGPGILQPSQTLSLTCSFSGFSLTTFAMGIGWVRQPSGKGLEWLAHIWWDGEKYNNPVLKSRLTISKDTSKNQVFLRIANVDTPDTATYYCARISSIYYIIDNWGQGTSVTVSS VL: DIVLTQSPATLSVTPGHSVSLSCRASQSISNNLHWYQKKSHESPRLLIKYVSQSISGIPSRFSGSGSGTDFTLSINSVETEDFGMYFCQQSYNWPLTFGAGTKLELK	≥ 30%

**Query** Input antibody 34 (antibody, V domains shown, mouse IgG, kappa light chain; also called clone #34; purified antibody 34) VH: QVTLKESGPGILQPSQTLSLTCSFSGFSLSTFSLGVGWIRQSSGKGLEWLAHIWWDDEKYYNPALKSRLTISKDTSKNQVFLKIANVDAADTATYYCARAYYSKSYYALDYWGQGTSVTVSS VL: DIQMTQSPSSLSASLGERVSLTCRASQEISGYLSWLQQKPDGTIKRLIYAASTLDSGVPKRFSGSRSGSDYSLAISSLESEDFADYYCLQYANFPFTFGSGTKLEIK , output reported loss of binding vs wild type.
**Result** ≥ 30%
